Biological target: T1, CD96 (UniProt P40200 22-585, limits assumed)
T1 construct: whole, on cells
T1 sequence (looked up): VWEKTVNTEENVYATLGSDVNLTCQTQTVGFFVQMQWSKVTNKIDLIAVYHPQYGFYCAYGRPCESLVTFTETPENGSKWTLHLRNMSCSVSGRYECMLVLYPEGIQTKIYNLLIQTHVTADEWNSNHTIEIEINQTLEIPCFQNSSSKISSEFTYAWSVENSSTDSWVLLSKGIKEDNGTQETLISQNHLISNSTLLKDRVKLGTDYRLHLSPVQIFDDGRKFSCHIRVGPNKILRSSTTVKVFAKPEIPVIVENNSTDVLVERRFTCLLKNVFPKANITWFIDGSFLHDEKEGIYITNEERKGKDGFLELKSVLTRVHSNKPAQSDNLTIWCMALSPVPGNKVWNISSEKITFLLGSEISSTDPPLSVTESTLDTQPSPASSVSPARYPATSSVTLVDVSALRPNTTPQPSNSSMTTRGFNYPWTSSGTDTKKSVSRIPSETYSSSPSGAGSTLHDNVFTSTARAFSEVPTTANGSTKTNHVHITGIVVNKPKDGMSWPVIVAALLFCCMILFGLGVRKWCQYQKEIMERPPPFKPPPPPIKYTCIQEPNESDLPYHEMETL
Experiment: flow cytometry, Fc fusion at 100 nM, CD96-transfected cells
Listed binders paired with reported MFI at 100 nM
experimentalEndpoint: MFI at 100 nM (MFI)

# binder, measValue
measured = [
    ("variant CD155 IgV-Fc Q62Y (Fc fusion, not shown: a dimerising Fc or GST) WPPPGTGDVVVQAPTQVPGFLGDSVTLPCYLQVPNMEVTHVSQLTWARHGESGSMAVFHQTYGPSYSESKRLEFVAARLGAELRNASLRMFGLRVEDEGNYTCLFVTFPQGSRSVDIWLRVL", 1830),
    ("variant CD155 IgV-Fc S42A/S52L/L104E/G111R (Fc fusion, not shown: a dimerising Fc or GST) WPPPGTGDVVVQAPTQVPGFLGDSVTLPCYLQVPNMEVTHVAQLTWARHGELGSMAVFHQTQGPSYSESKRLEFVAARLGAELRNASLRMFGLRVEDEGNYTCEFVTFPQRSRSVDIWLRVL", 1610),
    ("variant CD155 IgV-Fc S42L/S52L/Q62F/L104Q (Fc fusion, not shown: a dimerising Fc or GST) WPPPGTGDVVVQAPTQVPGFLGDSVTLPCYLQVPNMEVTHVLQLTWARHGELGSMAVFHQTFGPSYSESKRLEFVAARLGAELRNASLRMFGLRVEDEGNYTCQFVTFPQGSRSVDIWLRVL", 2320),
    ("variant CD155 IgV-Fc S52W/L104E (Fc fusion, not shown: a dimerising Fc or GST) WPPPGTGDVVVQAPTQVPGFLGDSVTLPCYLQVPNMEVTHVSQLTWARHGEWGSMAVFHQTQGPSYSESKRLEFVAARLGAELRNASLRMFGLRVEDEGNYTCEFVTFPQGSRSVDIWLRVL", 1630),
]
